Can you tell me IC50 for the items I'm about to list?
# Target of assay: IL-17A/A (Homo sapiens)
# Construct: purchased Genscript Z03228
# Sequence (Q16552 24-155): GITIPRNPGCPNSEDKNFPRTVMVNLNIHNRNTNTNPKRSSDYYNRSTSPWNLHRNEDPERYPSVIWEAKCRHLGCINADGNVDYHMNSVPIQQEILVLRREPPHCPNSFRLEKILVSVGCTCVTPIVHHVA
# Assay explanation: IL-17A/A HEK-Blue Cell Assay
# Format: cell-based
# Condition context: HEK-Blue IL-17A reporter cell line, SEAP readout at A630, 20 hours incubation with IL-17A/A; top concentration 10 uM, 1 uM or 0.3 uM; read-out: IL-17A/A inhibition (pIC50) (converted)

Example results:
CCC(=O)N[C@H](Cc1ccc(NC(=O)[C@@H](NC(=O)c2ccnn2CC)C2CCCCC2)c(F)c1)C(=O)N1CCC(C)(O)CC1 [Compound 382]    0.01 to 0.1 µM
CCC(=O)N[C@@H](C(=O)N1CCN(C)CC1)C(OC)c1ccc(NC(=O)[C@@H](NC(=O)c2ccnn2CC)[C@H]2CC[C@H](C)CC2)c(F)c1 (stereo partly drawn) [Compound 572]    0.1 to 10 µM
CCC(=O)N[C@H](Cc1ccc(NC(=O)[C@@H](NC(=O)c2ccnn2CC)C2CCCCC2)c(F)c1)C(=O)Nc1cccnc1 [Compound 694]    0.1 to 10 µM
CCC(=O)N[C@H](Cc1ccc(NC(=O)[C@@H](NC(=O)c2ccnn2CC)C2CCCCC2)c(F)c1)C(=O)N1CCNC2(CC2)C1 [Compound 690]    0.1 to 10 µM
CCC(=O)N[C@H](Cc1ccc(NC(=O)[C@@H](NC(=O)C(F)(F)c2ccc(OC)nc2)[C@H]2CC[C@H](C)CC2)c(F)c1)C(=O)N1CCN(C)CC1 [Compound 216]    0.1 to 10 µM

With those in mind, consider the next molecule.
For this molecule ( CCC(=O)N[C@@H](C(=O)N1CCN(C)CC1)[C@@H](C)c1ccc(NC(=O)C(NC(=O)c2ccnn2CC)C(CC)c2ccccc2)c(F)c1 (stereo partly drawn) [Compound 293] ), measured IC50 is 0.01 to 0.1 µM

###

# Target of assay: IL-17A/A (Homo sapiens)
# Construct: purchased Genscript Z03228
# Assay explanation: IL-17A/A HEK-Blue Cell Assay
# Type: cell-based
# Condition context: HEK-Blue IL-17A reporter cell line, SEAP readout at A630, 20 hours incubation with IL-17A/A; top concentration 10 uM, 1 uM or 0.3 uM; read-out: IL-17A/A inhibition (pIC50) (converted)
Give IC50 for every item shown.

Please review the entries below; each comes with its answer.
CC(C)n1nccc1C(=O)N[C@H](C(=O)Nc1ccc([C@H](C)[C@@H](NC(=O)c2cnns2)C(=O)N2CCN(C)CC2)cc1F)[C@H]1CC[C@H](C)CC1 [Compound 333]    < 10 nM
CCC(=O)N[C@H](Cc1ccc(NC(=O)[C@@H](NC(=O)c2conc2CC)C2CCCCCC2)c(F)c1)C(=O)N1CCN(C)CC1 [Compound 236]    10 to 100 nM
CCC(=O)N[C@@H](C(=O)N1CCN(Cc2ccccc2)CC1)[C@H](C)c1ccc(NC(=O)[C@@H](NC(=O)c2ccnn2CC)C2CCCCC2)c(F)c1 [Compound 670]    100 to 10000 nM
Cc1nonc1C(=O)N[C@H](C(=O)Nc1ccc([C@H](C)[C@@H](NC(=O)c2cnns2)C(=O)N2CCN(C)CC2)cc1F)[C@H]1CC[C@H](C)CC1 [Compound 583]    < 10 nM
CCC(=O)N[C@@H](C(=O)N1CCN(CCO)CC1)[C@@H](C)c1ccc(NC(=O)[C@@H](NC(=O)c2nonc2CC)[C@H]2CC[C@H](C)CC2)c(F)c1 [Compound 445]    10 to 100 nM
CCCn1nccc1C(=O)N[C@H](C(=O)Nc1ccc(C[C@@H](NC(=O)CC)C(=O)N2CCN(C)CC2)cc1F)C1CCCCC1 [Compound 237]    10 to 100 nM
CCC(=O)N[C@H](Cc1ccc(NC(=O)[C@@H](NC(=O)c2ccnn2CC)C2CCC(F)(F)CC2)c(F)c1)C(=O)N1CCN(C)CC1 [Compound 689]    100 to 10000 nM
CCC(=O)N[C@@H](C(=O)N1CCN(Cc2ccccn2)CC1)[C@@H](C)c1ccc(NC(=O)[C@@H](NC(=O)c2ccnn2CC)C2CCCCCC2)c(F)c1 [Compound 348]    < 10 nM
C[C@@H](c1ccc(NC(=O)[C@@H](NC(=O)C(F)(F)c2cccc(C#N)c2)C2CCCCC2)cc1)[C@@H](NC(=O)c1cnns1)C(=O)N1CCN(C)CC1 [Compound 301]    < 10 nM
C[C@@H](c1ccc(NC(=O)[C@@H](NC(=O)C(F)(F)C2CC2)C2CCCCCC2)c(F)c1)[C@@H](NC(=O)c1cnns1)C(=O)N1CCN(C)CC1 [Compound 536]    10 to 100 nM

For each of the molecules below, note its IC50.
1. CCc1nonc1C(=O)N[C@H](C(=O)Nc1ccc([C@H](C)[C@@H](NC(=O)N(C)C2CC2)C(=O)N2CCN(C)[C@H](C)C2)cc1F)[C@H]1CC[C@H](C)CC1 [Compound 508]
2. CCC(=O)N[C@@H](C(=O)N1CCC(F)(F)CC1)[C@@H](C)c1ccc(NC(=O)[C@@H](NC(=O)c2ccnn2CC)[C@H]2CC[C@H](C)CC2)c(F)c1 [Compound 369]
3. CCC(=O)N[C@@H](C(=O)N1CCN(C)CC1)[C@@H](C)c1ccc(NC(=O)[C@@H](NC(=O)C(F)(F)c2ccccc2C#N)C2CCCCC2)c(F)c1 [Compound 638]
4. CCC(=O)N[C@@H](C(=O)N1CCN(C)CC1)[C@@H](C)c1ccc(NC(=O)[C@@H](NC(=O)C(F)(F)c2cccc(OC)c2)C2CCCCC2)c(F)c1 [Compound 243]
5. CCn1nccc1C(=O)N[C@H](C(=O)Nc1ccc(C[C@@H](NC(=O)c2ccnn2-c2ccc(=O)[nH]c2)C(=O)N2CCN(C)CC2)cc1F)C1CCCCC1 [Compound 623]
6. CCc1nonc1C(=O)N[C@H](C(=O)Nc1ccc([C@H](C)[C@@H](NC(=O)C(C)(F)F)C(=O)N2CCN(C)CC2)cc1F)[C@H]1CC[C@H](C)CC1 [Compound 501]

< 10 nM
10 to 100 nM
100 to 10000 nM
10 to 100 nM
100 to 10000 nM
10 to 100 nM

Below is a list of molecules. For each, state its recorded IC50.
1. CCC(=O)N[C@H](Cc1ccc(NC(=O)[C@@H](NC(=O)c2ccnn2CC(F)(F)F)C2CCCCC2)c(F)c1)C(=O)N1CCN(C)CC1 [Compound 648]
2. CCn1nnnc1C(=O)N[C@H](C(=O)Nc1ccc([C@H](C)[C@@H](NC(=O)N(C)C2CC2)C(=O)N2CCN(C)[C@H](C)C2)cc1F)[C@H]1CC[C@H](C)CC1 [Compound 604]
3. CCC(=O)N[C@@H](C(=O)N1CCN(C)CC1)[C@@H](C)c1ccc(NC(=O)[C@@H](NC(=O)c2ccnn2C(C)C)C2CCCCCC2)cc1 [Compound 232]
4. CCC(=O)N[C@@H](C(=O)N1CCN(C)CC1)[C@@H](C)c1ccc(NC(=O)C(NC(=O)C(F)(F)c2cccc(C#N)c2)[C@@H](C)c2ccccc2)c(F)c1 (stereo partly shown) [Compound 290]
5. CCC(=O)N[C@@H](C(=O)N1CCN(C)CC1)[C@@H](C)c1ccc(NC(=O)[C@@H](NC(=O)C(F)(F)c2cncc(C#N)c2)[C@H]2CC[C@H](C)CC2)c(F)c1 [Compound 530]
6. CCC(=O)N[C@@H](C(=O)N1CCN(C)C[C@@H]1C)[C@@H](C)c1ccc(NC(=O)[C@@H](NC(=O)c2ccnn2CC)[C@H]2CC[C@H](C)CC2)c(F)c1 [Compound 429]

1: 100 to 10000 nM; 2: < 10 nM; 3: 10 to 100 nM; 4: < 10 nM; 5: < 10 nM; 6: < 10 nM

###

# Target of assay: IL-17A/A (Homo sapiens)
# Construct: purchased Genscript Z03228
# Assay explanation: IL-17A/A HEK-Blue Cell Assay
# Format: cell-based
# Condition context: HEK-Blue IL-17A reporter cell line, SEAP readout at A630, 20 hours incubation with IL-17A/A; top concentration 10 uM, 1 uM or 0.3 uM; read-out: IL-17A/A inhibition (pIC50) (converted)
Readout kind: IC50

CCn1nccc1C(=O)N[C@H](C(=O)Nc1ccc([C@H](C)[C@@H](NC(=O)N(C)C2CC2)C(=O)N2CCN(C)CC2)cc1F)[C@H]1CC[C@H](C)CC1    < 10 nM
CCC(=O)N[C@@H](C(=O)N1CCN(C)CC1)[C@@H](C)c1ccc(NC(=O)C(NC(=O)c2ccnn2CC)[C@@H](C)c2ccccc2)c(F)c1 (stereo partly drawn)    10 to 100 nM

So, `CCc1nonc1C(=O)N[C@H](C(=O)Nc1ccc([C@H](C)[C@@H](NC(=O)[C@H](C)OC)C(=O)N2CCN(C)CC2)cc1F)[C@H]1CC[C@H](C)CC1` ? Its IC50 was < 10 nM

All figures here come from patent US12421212B2.
